# ASSAY_NOTES: Tmax in overnight fasted Sprague-Dawley rat at 20 mg/kg, iv by HPLC analysis
# Type: ADME, organism-based
# PARTICULARS: in vivo
METRIC: Tmax (min)

> print(dat)
                                smiles.code  recorded.number
1  CN1CCN(c2ccc(Nc3ncc4cc(CNc5ccccc5)n(C5CCCC5)c4n3)cc2)CC1             4.98
